PROTOCOL: soluble on expression in E. coli; label from the status in PepcDB or PDB records
OBSERVABLE: soluble on expression in E. coli

Solved entries (count: 5):
PVPPLPEHGGKVRFGLIPEEFFQFLYPKTGVTGPYVLGTGLILYLLSKEIYVITPETFSAISTIGFLVYIVKKYGASVGEFADKLNEQKIAQLEEVKQASIKQIQDAIDMEKSQQALVQKRHYLFDVQRNNIAMALEVTYRERLHRVYREVKNRLDYHISVQNMMRQKEQEHMINWVEKRVVQSISAQQEKETIAKCIADLKLLSKKAQAQPVM :: soluble
MLLHTFFDDSKTSVEETPRMFVARLFGSPVSTSIIPTEKESINNNNQETAKMPLDPMDSLWMSKAPQVSDLVVQPNVTFKAVTGGSPHSPSASIPIAGADDSIRPDYDTDCLWKPPTRSARVQKERTISMDSTDSEIGALGGRKFSTNEGASPAPTSPIDAQPRARRMSISEMLFGSSPKSFSWGMESNTTNTTTTSNSGGGDIGERKMSITDDPRFKDFMKHQSKIIGDDGISAAGFKRSNYMKD :: not soluble
MGSDKIHHHHHHLVPPDYQDPPSDFTAEVEAGLQLNTGNNESKNFNSRAYLTYDTPKTRQEGTFKVYYAADGTETTSEKYDLFLQSSYKLNRGYVFGRGEFTWDDFGSFTEIRTLSTGYGFDLIKSYKTKLSLEAGPGYRYDMPRATLSDPEPRANREVILRTAARYSVKLQEYTSLNADVTAETGLDNNTLTLDMSYKNTFLQDWAFKIGMNVRYTQDVPQDSQRTDTTTTFNLLYTFQ :: not soluble
MNRTIDRSVPKLGVRSTRQRTAVVGVLKDLDYFASAKVIHQELTKRDLKVGLTTVYRTLQSLSEIEAVDVLHMSNGETLYRHCLSDEHHHHLVCTECGRTVEIDGGPVEKWAKEVAQLHGFQVTGHDAEIYGLCESCSAATE :: not soluble
HHHHHHYMEQEEDWDRDLLLDPAWEKQQRKTFTAWCNSHLRKAGTQIENIEEDFRNGLKLMLLLEVISGERLPRPDKGKMRFHKIANVNKALDFIASKGVKLVSIGAEEIVDGNLKMTLGMIWTIILRFAIQDISVEETSAKEGLLLWCQRKTAPYRNVNVQNFHTSWKDGLALCALIHRHRPDLIDYAKLRKDDPIGNLNTAFEVAEKYLDIPKMLDAEDIVNTPKPDEKAIMTYVSCFYHAFAGAEQAETAA :: soluble

Each of the following entries comes with a recorded value; kindly state soluble on expression in E. coli for each.
1. MAHHHHHHMAVSQLLEMKLITRPRANLTQENVNAMVEFDYELAKKAQIAVDNNLPVNFFDLEYIDKPEYLAQLLEEKNILEKTREEVLKREKGNYKTPEILKNYKRVEVPREWRQELEIDEKILKAQPGLKENIELQKIMHNYVQSKFKSKVPGQPQKKHVKG
2. GPGSMLHFPITPPPIEIEYLDNDPLEFAVRTEARKWRFDDMGYMRELAFVRINNNPTVGDFRNMSPDERRNLFWGSDRQDFFRHLTCTLTGSPEHLYHRGW

Resp:
soluble
not soluble

---

PROTOCOL: soluble on expression in E. coli; label from the status in PepcDB or PDB records
OBSERVABLE: soluble on expression in E. coli

Solved entries (count: 4):
MALATRNLKVIHIKRIENSRSSLIRANHGSKGIIHLILDQAPYHRADKVKEKAKKLVIHLNYLPPYSPNLNPIERLWKVMNEKVRNNRFFNSAKDFRREIERFFTEILPDIGASLGQSINDNFQLEHHHHHH :: not soluble
MSRTKDQAAAVLPTLLSALRLPSISRNWKHLTDTADRDGWPAANLLACLLEIEMAERASRRIQRHREQSGLPAGKTFATFDFDFPSGIRKPHLLSLATGEGWIESGGNILIFGQSGTGKTHVIAAIGHALIDAGRRVLFSTTTEMVQKLQAARRELSLPSMLDKLDKYDLIVLDSCAVRRDVESPSLGATFARRVARATQHKAAALEHHHHHH :: not soluble
MSNEEARSAGDLRNTGLSLRHDRTWDYELDRIVDEVERKDAEKVGLQFPEGLKRRGPAVADDLRARLDDTRIMLSGQPCYGACDLDTYLMRRTDVFVHFGHSPMKESDSIIYVPLFSNVDVEPIMQEARDELHDGDVGLVTTAQHMNQFEEMRTWLEERGYTVHTRRGDDRLTNEGQVLGCNYASADIDADQVLYVGGGKFHPLGLAMEHPEKNVVIADPVNNAVSIADAEQFLKERYASVHKAMDAEQWGVIFCTKIGQGRFDQAEEIVENNDNAYLITMDEVTPDRLMNFDMDAFVNTGCPRITTDDGPQFHKPMLTPGEYEIAVGNKPLEDLSFDTFHGTWLEHHHHHH :: not soluble
MTGVDPTIVKIHEIQGTGTASPLVNNVVTIEAIVVGDFQDGDGDISRNLRGFYVQEEDADVDGNVATSEGIFIFENGNFITDVNVGDKVQITGTVDEFFGETQIDTITNITVISSGNTLPTAANITLPTAGTTESQGGTPQPDLEAFEGMLVKFTDTLTITEMFNLDRFNEIKLSQGGRPQQFTQFNDANVAGYGAYREEIGARTITYDDGLSVQNAEISNLDGFGSSFSTASDIRMGDTINNLTGVLSYQWAGNASSGATWRVRSAVDGTNQFTKVNDRPVTPENVGGSLKVTGFNVLLEHHHHHH :: soluble

Each of the following entries comes with a recorded value; kindly state soluble on expression in E. coli for each.
1. SALTAALSVCPLPSSSFFFAGFLPHKKGRKSRLEFLASIDSTIVLYESPHRIGRLMEEVKEHFPDAQVFAAREITKMHEEYVTGTPDELANHFTGQKQRGEFVVVVHPPDKH
2. SNAEELQALVDNIPAAIYHLDVSGQATIRFRPPAFLKTLVSEHAGTTRLNTLSMIHHDDRHMLSNAYSKLREAKHSLTLVYRIVTPEGKLHWIEDHMRSSFSDDGLFSGIDGILCEVT
3. MSKAEFQKFHDEMKALKNAGKHDEFAKKFAAKDAVFIGPLHDPCTADEAAKLAQSDKMAALVKADFDVKIDEVTQIGDVVVERCSISAKLPTGDKNGWSLTVWVKEGGAWKIRNSCITFKAPIPQ

Resp:
1: not soluble; 2: soluble; 3: not soluble

---

PROTOCOL: soluble on expression in E. coli; label from the status in PepcDB or PDB records
OBSERVABLE: soluble on expression in E. coli

MSRMIFLFLIPVVTSCIPTQQIEMPCPTDWEKFERPSGPWCVKLFVGLYLQGNRNEASARCAAEGAVLSGVQNQAELNAMTRQFTKLRYGYFWVGAMRKTSCLMSQLTATCTALNSFEWTDGSTTGTDGFIWKTGDPNNYLYNLYE :: not soluble
MGSDKIHHHHHHMWTGFFSKSGTGIAEERHQNRRACTDVPLLAERNSKHPDRPYGFAKYRQSGLDIYAWHGIYFFPRFPFIDIDCIRWVCAGLKAFKHYIRENGLPDLIHAHRMNYAGILAQKISQKYGIPYVVTEHSSTITRGLIRPHQWQPMEKAAAHASALLAVSRHFAHVLQHKYGCEWQYLPPTYWAEYSTDRLNKEKKTTNRISCSAPSRTFAVSKDTMSYSLPLPGRWHNARNCA :: not soluble

---

PROTOCOL: soluble on expression in E. coli; label from the status in PepcDB or PDB records
OBSERVABLE: soluble on expression in E. coli

MQKPKLGKIKLLSAKEQVAAVLRKAILSRELVEGQEITLEGIAGMVGVSSMPVREAFQILAADGLIKVRPNKGAVVLGINEQTIREHYEIRALLESEAVAKASRPGSDISRIAQVHYAAEKALAENNSAEYSDLNQAFHMEIWNVAGNEKMKMLLCNMWNGLSMGHKVTEEEYAVISIQEHKSILQALELHDETLARQRMREHIIRSMENMLTRYVGDPSA :: not soluble
MGSDKIHHHHHHMSSPSLGTEQVFPQQALLDPVLLRAFVAVADSGSFTRAAAATHLTQSTVSQQLKRLEQQLGCELLSRKGRYAMPTADGERLLGYARQILALMAEAGMTPAQPPLLRLAVAEDFAGTALMPILKKLITRFPSVKLEVQSGLSKPLYQAFQEGVVELALIKQRQGEHPAKACWPEALSWLAAADWQAVKAGEPVPLIAFPAGGLYRNEMAQLLDEAGIPWRLVYSSNSLEGVLCAVAAGMGVSLLPSRFIRAREHREITALPRATAMELALHLASSPGAELQWLADEIGAYCDRLSSGGSSVSCPNTSA :: not soluble

---

PROTOCOL: soluble on expression in E. coli; label from the status in PepcDB or PDB records
OBSERVABLE: soluble on expression in E. coli

MSLTSDTKEKVEYSTDKYKVETNRFWDNWFISVGAGGQVYFGDHDKQIDFGDRIAPALDIAIGKWFTPGIGIRFMYSGLKSKGATRDDWECDITHGTGEHVPGWAGVPGDDLQYSKYKMSNLHADVLFNVLNLFGGYNENRKWDLSPYAGLGWARVYDSPSSKEVSANLGILTSWHFCDVLALNLDVRGMFVNDRFDGEGGGRFGEGNLSATIGLTYKFKQRSWDRSKTVYRYNYGDLESMRRKLNDMSAENDRLKKALADGDKQKAQTIVKKIASANLVTFKINRTKLSNEARANLGLLAEIIKSGDPETVYTITGYADAGTGSSKGNERLSKERAENVYDCLVKEFGVSEKQLRIDYKGGVDNMFYNDPRLSRAVITRGEEGHHHHHH :: not soluble
MGSDKIHHHHHHMAPNYMTEKWREDEEYLSYVEDLLATEEVQKLAEYTQHMHSTRLEHSISVSYHSYKLAKRWNGNARATARAGLLHDLFYYDWRTTKFDEGSHAYVHPRIAAKNAEKITELSDLERDIIIKHMWGATIAPPKYKESYIVTFVDKYCAVKEAALPMTTAMKTKWRQYFGQQSI :: not soluble
